Below, each entry is listed with its recorded CC50.
assay: Cytotoxicity against MDCK cells by MTT assay; type: cell-based, Canis lupus familiaris; conditions: dog, MDCK cells
Write the number in µM without appending the unit.

The following molecules have reported results that may help.
molecule: Cc1cc2c(c(O)c1-c1c(C)cc3c(c1O)/C(=C/NC(C)(C)C(=O)[O-])C(=O)C(O)=C3C(C)C)/C(=C/NC(C)(C)C(=O)[O-])C(=O)C(O)=C2C(C)C.[Na+].[Na+] (stereo in doubt; (-)-9a)
CC50 [µM]: 50.5

molecule: Cc1cc2c(C(C)C)c(O)c(O)c(C(=O)O)c2c(O)c1-c1c(C)cc2c(C(C)C)c(O)c(O)c(C(=O)O)c2c1O
CC50 [µM]: 60.6

molecule: CC(=O)Oc1c(OC(C)=O)c(C(=O)O)c2c(OC(C)=O)c(-c3c(C)cc4c(C(C)C)c(OC(C)=O)c(OC(C)=O)c(C(=O)O)c4c3OC(C)=O)c(C)cc2c1C(C)C
CC50 [µM]: 41.5

molecule: Cc1cc2c(C(C)C)c(O)c(O)c(C=O)c2c(O)c1-c1c(C)cc2c(C(C)C)c(O)c(O)c(C=O)c2c1O [GOSSYPOL]
CC50 [µM]: 35.4

Next item in the queue.
Input line: # query: CC50 of entry `Cc1cc2c(c(O)c1-c1c(C)cc3c(c1O)/C(=C/N[C@@H]1[C@@H](O)[C@H](O)[C@@H](CO)O[C@H]1O)C(=O)C(O)=C3C(C)C)/C(=C/N[C@@H]1[C@@H](O)[C@H](O)[C@@H](CO)O[C@H]1O)C(=O)C(O)=C2C(C)C`
Output line: 21.8
